# Assay Notes: total protein half-life in vivo (active degradation + dilution); higher = more stable protein
# Test Parameters: E. coli NCM3722 delta-lon; growth: N-lim chemostat; doubling time 6 h
This section presents sequences with their documented total protein half-life in vivo values.
Enter the number, and then the unit.

{"Sequence Code": "MNTLTFLLSTVIELYTMVLLLRIWMQWAHCDFYNPFSQFVVKVTQPIIGPLRRVIPAMGPIDSASLLVAYILSFIKAIVLFKVVTFLPIIWIAGLLILLKTIGLLIFWVLLVMAIMSWVSQGRSPIEYVLIQLADPLLRPIRRLLPAMGGIDFSPMILVLLLYVINMGVAEVLQATGNMLLPGLWMAL", "Assay Result": "6.12 h"}

# next sequence below
Report total protein half-life in vivo for MNNMNVIIADDHPIVLFGIRKSLEQIEWVNVVGEFEDSTALINNLPKLDAHVLITDLSMPGDKYGDGITLIKYIKRHFPSLSIIVLTMNNNPAILSAVLDLDIEGIVLKQGAPTDLPKALAALQKGKKFTPESVSRLLEKISAGGYGDKRLSPKESEVLRLFAEGFLVTEIAKKLNRSIKTISSQKKSAMMKLGVENDIALLNYLSSVTLSPADKD [P0DMC7] please.
3.76 h

Data provenance is the supplement of paper PMC11246515.
